System: Rattus norvegicus
Assay: Hypolipidemic activity in Sprague-Dawley rat assessed as reduction in serum triglyceride level at 0.25 % compound administered in diet for 14 days relative to control
Assay type: functional
Set-up: scale not given: the % may be the effect or the level left
Everything with Activity lower than -50% is Not fulfilled; everything else, including exactly -50%, is Fulfilled.

Request: Does the molecule `CC(C)(Sc1cc(C(C)(C)C)c(O)c(C(C)(C)C)c1)C(=O)O` have recorded Activity that is -50% or more?
Response: Not fulfilled

Request: Is Activity at least -50%? Consider CCCCCC(Sc1cc(C(C)(C)C)c(O)c(C(C)(C)C)c1)C(=O)O (stereo not drawn)
Response: Not fulfilled

Request: Does the molecule `CC(C)(Sc1cc(C(C)(C)C)c(O)c(C(C)(C)C)c1)Sc1cc(C(C)(C)C)c(O)c(C(C)(C)C)c1` have recorded Activity that is -50% or more?
Response: Fulfilled

Request: In plain terms: is recorded Activity at least -50% for CCCCC(Sc1cc(C(C)(C)C)cc(C(C)(C)C)c1)C(=O)O (stereo not drawn) ?
Response: Fulfilled

Request: Tell me whether Activity is at least -50% here: `CCOC(=O)C(C)(C)Sc1cc(C(C)(C)C)c(O)c(C(C)(C)C)c1`
Response: Not fulfilled

Request: I'd appreciate it if you could say whether CCC(Sc1cc(C(C)(C)C)c(O)c(C(C)(C)C)c1)C(=O)O (stereo not drawn) has Activity at least equal to -50%.
Response: Not fulfilled

Request: Is Activity for CCCC(Sc1cc(C(C)(C)C)c(O)c(C(C)(C)C)c1)C(=O)OCC (stereo not drawn) at or above -50%?
Response: Not fulfilled
